Recorded Inhibition ratio (%) at 1 μmol/L values for a group of compounds are listed next.
biological target: tankyrase-2 (Homo sapiens, UniProt Q9H2K2); construct: purchased BPS Bioscience, Inc. 80566; test: Tankyrase-2 enzyme inhibition test (Tankyrase-2 Chemiluminescent Assay Kit); type: biochemical; settings: autoribosylation of GST-tankyrase-2 fusion protein, chemiluminescence
Sequence (Q9H2K2 whole entry, the tested form may be a part): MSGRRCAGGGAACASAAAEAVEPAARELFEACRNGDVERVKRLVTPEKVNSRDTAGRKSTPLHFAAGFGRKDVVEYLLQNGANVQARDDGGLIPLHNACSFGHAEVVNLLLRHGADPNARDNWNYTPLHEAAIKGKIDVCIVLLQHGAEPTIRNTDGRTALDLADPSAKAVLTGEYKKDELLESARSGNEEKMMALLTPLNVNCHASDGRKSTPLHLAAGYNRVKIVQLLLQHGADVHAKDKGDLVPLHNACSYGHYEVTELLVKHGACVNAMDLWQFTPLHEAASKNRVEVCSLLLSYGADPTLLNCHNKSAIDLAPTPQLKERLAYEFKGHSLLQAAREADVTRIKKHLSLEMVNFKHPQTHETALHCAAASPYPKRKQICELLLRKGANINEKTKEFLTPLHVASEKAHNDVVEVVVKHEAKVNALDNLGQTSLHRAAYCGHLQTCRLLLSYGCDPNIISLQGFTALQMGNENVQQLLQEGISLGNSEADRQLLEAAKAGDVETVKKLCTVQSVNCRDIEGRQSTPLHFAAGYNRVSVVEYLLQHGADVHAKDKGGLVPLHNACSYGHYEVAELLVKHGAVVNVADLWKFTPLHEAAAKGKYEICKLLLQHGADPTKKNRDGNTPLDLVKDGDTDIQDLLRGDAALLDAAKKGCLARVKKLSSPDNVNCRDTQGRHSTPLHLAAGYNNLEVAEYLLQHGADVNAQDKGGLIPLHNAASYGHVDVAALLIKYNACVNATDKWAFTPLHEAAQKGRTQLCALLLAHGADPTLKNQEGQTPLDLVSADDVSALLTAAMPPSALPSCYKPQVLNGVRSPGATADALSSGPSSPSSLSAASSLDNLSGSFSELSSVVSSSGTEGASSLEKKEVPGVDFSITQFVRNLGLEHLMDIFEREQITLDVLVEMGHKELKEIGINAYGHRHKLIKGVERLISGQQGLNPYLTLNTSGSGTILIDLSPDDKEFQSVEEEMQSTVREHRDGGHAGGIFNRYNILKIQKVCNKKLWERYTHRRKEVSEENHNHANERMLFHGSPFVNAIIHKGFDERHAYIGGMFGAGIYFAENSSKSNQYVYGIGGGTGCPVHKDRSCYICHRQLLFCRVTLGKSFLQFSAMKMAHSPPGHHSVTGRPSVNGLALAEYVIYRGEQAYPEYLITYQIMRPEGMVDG
Form entry: value (%) — number only.

Sample records with Inhibition ratio (%) at 1 μmol/L:
COc1cc2ncnc(N3CCC(CN4Cc5ccccc5N(Cc5ccccc5C(N)=O)C4=O)CC3)c2cc1OC | 91
N#Cc1cc(N2C(=O)N(CC3CCN(c4ncnc5cc(N)cnc45)CC3)Cc3ccccc32)ccn1 | 92
COc1cncnc1N1CCC(CN2Cc3ccccc3N(c3ccnc(C#N)c3)C2=O)CC1 | 94
N#Cc1cc(N2C(=O)N(CC3CCN(c4nccc5nc[nH]c(=O)c45)CC3)Cc3cccnc32)ccc1F | 80
COc1cc2ncnc(N3CCC(CN4Cc5ccccc5N(c5c[nH]c(=O)c(C#N)c5)C4=O)CC3)c2cc1OC | 88

Challenge: Retrieve Inhibition ratio (%) at 1 μmol/L measured for `N#Cc1cc(N2C(=O)N(CC3CCN(c4nccc5nc[nH]c(=O)c45)CC3)Cc3ccccc32)ccn1` and print it.
Response given: 87

Challenge: Retrieve Inhibition ratio (%) at 1 μmol/L measured for `N#Cc1cc(N2C(=O)N(CC3CCN(c4cccc5n[nH]c(=O)n45)CC3)Cc3ccccc32)ccn1` and print it.
Response given: 94

###

system: T-cell factor (TCF)-luciferase reporter using Wnt pathway as index; test: Inhibitory activity against TCF-luciferase reporter using Wnt pathway as index (DLD-1/TCF-Luc cells); type: cell-based, human; settings: Homo sapiens, DLD-1, 18 h, read-out: Inhibition ratio (%) at 1 μmol/L
Please use YES whenever inhibition at 1 µM is not below 80%, and NO whenever it is.

Look over these answered cases.
N#Cc1cc(N2C(=O)N(CC3CCN(c4nccn5c(=O)[nH]nc45)CC3)Cc3ccccc32)ccn1 [Compound 39] | YES
COc1cc2ncnc(N3CCC(CN4Cc5ccccc5N(c5ccnc(C#N)c5)C4=O)CC3)c2cc1OC [Compound 9] | NO
COc1cc2ncnc(N3CCC(CN4Cc5ccccc5N(c5cccc([N+](=O)[O-])c5)C4=O)CC3)c2cc1OC [Compound 8] | NO
N#Cc1cc(N2C(=O)N(CC3CCN(c4ncnc5[nH]ccc45)CC3)Cc3ccccc32)ccn1 [Compound 31] | NO
CN1CCN(C(=O)c2ccc3c(N4CCC(CN5Cc6ccccc6N(c6ccnc(C#N)c6)C5=O)CC4)ncnc3c2)CC1 [Compound 27] | YES

Challenge: hey, is inhibition at 1 µM for this one >= 80%? N#Cc1cc(N2C(=O)N(CC3CCN(c4cccc5n[nH]c(=O)n45)CC3)Cc3ccccc32)ccn1 [Compound 38]
Response given: YES

Challenge: hey, is inhibition at 1 µM for this one >= 80%? COc1cncnc1N1CCC(CN2Cc3ccccc3N(c3ccnc(C#N)c3)C2=O)CC1 [Compound 32]
Response given: NO

Challenge: hey, is inhibition at 1 µM for this one >= 80%? N#Cc1cc(N2C(=O)N(CC3CCN(c4nccn5ccnc45)CC3)Cc3ccccc32)ccn1 [Compound 30]
Response given: NO

Challenge: hey, is inhibition at 1 µM for this one >= 80%? N#Cc1cccc(N2C(=O)N(CC3CCN(c4ncnc5c4COCC5)CC3)Cc3ccccc32)c1 [Compound 43]
Response given: YES

Challenge: hey, is inhibition at 1 µM for this one >= 80%? N#Cc1cccc(N2C(=O)N(CC3CCN(c4ncnc5c[n+]([O-])ccc45)CC3)Cc3ccccc32)c1 [Compound 29]
Response given: NO

Challenge: hey, is inhibition at 1 µM for this one >= 80%? N#Cc1cccc(N2C(=O)N(CC3CCN(c4ncnc5cc(C(=O)O)ccc45)CC3)Cc3ccccc32)c1 [Compound 25]
Response given: YES
